For each record, write down the corresponding pIC50.
# system: HCV polymerase 1B (Δ21 NS5B, BK) (Hepatitis C virus genotype 1b)
# Construct: 20 to 50 nM Δ21 NS5B
# Sequence (P26663 2420-2989, stated change not applied): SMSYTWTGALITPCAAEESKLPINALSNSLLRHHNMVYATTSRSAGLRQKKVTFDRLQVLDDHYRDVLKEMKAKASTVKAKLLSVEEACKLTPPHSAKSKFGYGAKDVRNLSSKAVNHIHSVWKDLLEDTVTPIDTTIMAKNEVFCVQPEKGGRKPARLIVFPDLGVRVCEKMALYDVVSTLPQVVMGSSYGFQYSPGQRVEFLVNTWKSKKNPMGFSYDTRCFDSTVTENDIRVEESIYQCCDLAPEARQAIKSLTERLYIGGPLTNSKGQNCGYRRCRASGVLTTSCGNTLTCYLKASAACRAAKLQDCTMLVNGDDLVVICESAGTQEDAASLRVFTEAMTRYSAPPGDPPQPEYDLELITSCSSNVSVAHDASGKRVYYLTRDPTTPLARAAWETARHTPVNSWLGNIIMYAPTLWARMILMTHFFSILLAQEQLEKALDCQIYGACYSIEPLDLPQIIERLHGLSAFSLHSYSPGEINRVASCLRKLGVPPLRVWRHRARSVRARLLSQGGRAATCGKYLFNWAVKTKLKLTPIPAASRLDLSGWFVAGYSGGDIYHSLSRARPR
# assay_explanation: biochemical
pIC50: −log10 of the molar value. Counter-ions that a name gives are not always drawn.

### Prompt Reported pIC50 for COc1c(-c2cccc(/C=N/NS(C)(=O)=O)c2)cc(-n2ccc(=O)[nH]c2=O)cc1C(C)(C)C [IB-L0-1.10] : what is it?
### Response 6.00 to 7.00

### Prompt Reported pIC50 for COc1c(C(=O)Nc2ccc(NS(C)(=O)=O)nc2)cc(N2CCC(=O)NC2=O)cc1C(C)(C)C [IA-L3-1.99] : what is it?
### Response 6.00 to 7.00

### Prompt Reported pIC50 for COc1c(COc2ccc(NS(C)(=O)=O)cc2)cc(N2CCC(=O)NC2=O)cc1C(C)(C)C [IA-L6-1.1] : what is it?
### Response 6.00 to 7.00

### Prompt Reported pIC50 for COc1c(NC(=O)c2ccc(CS(C)(=O)=O)cc2)cc(N2CCC(=O)NC2=O)cc1C(C)(C)C [IA-L4-1.10] : what is it?
### Response < 6.00

### Prompt Reported pIC50 for COc1c(-c2ccc3c(c2)CCC3(F)CNS(C)(=O)=O)cc(-n2ccc(=O)[nH]c2=O)cc1C(C)(C)C (stereo not drawn) [IB-L0-2.12] : what is it?
### Response 7.00 to 8.00

### Prompt Reported pIC50 for CN(C(=O)c1cc(N2CCC(=O)NC2=O)cc(C(C)(C)C)c1O)c1ccccc1 [IA-L3-1.1] : what is it?
### Response < 6.00

### Prompt Reported pIC50 for CCc1cc(N2CCC(=O)NC2=O)cc(C(=O)Nc2ccc(NS(C)(=O)=O)cc2)c1O [IA-L3-1.113] : what is it?
### Response < 6.00

### Prompt Reported pIC50 for COc1c(C#Cc2ccc(NS(C)(=O)=O)c(F)c2Cl)cc(N2CCC(=O)NC2=O)cc1C(C)(C)C [IA-L2-1.21] : what is it?
### Response 7.00 to 8.00

### Prompt Reported pIC50 for COc1c(-c2cccc(/C(C)=N\NS(C)(=O)=O)c2)cc(N2CCC(=O)NC2=O)cc1C(C)(C)C [IA-L0-1.8] : what is it?
### Response 6.00 to 7.00

### Prompt Reported pIC50 for COc1c(C#Cc2cccc(NS(C)(=O)=O)c2)cc(N2CCC(=O)NC2=O)cc1C(C)(C)C [IA-L2-1.7] : what is it?
### Response 7.00 to 8.00

### Prompt Reported pIC50 for CCN(CC)C(=O)C1CCCN(Cc2cc(N3CCC(=O)NC3=O)cc(C(C)(C)C)c2O)C1 (stereo not drawn) [IA-L5-1-1.7, trifluoroacetic acid salt] : what is it?
### Response < 6.00

### Prompt Reported pIC50 for CCNC(=O)CN1C(=O)CCN(c2cc(C(=O)Nc3ccc(N(CC(=O)NCC)S(C)(=O)=O)cc3)c(OC)c(C(C)(C)C)c2)C1=O [IA-L3-1.115] : what is it?
### Response < 6.00

### Prompt Reported pIC50 for COc1c(C#Cc2ccccc2)cc(N2CCC(=O)NC2=O)cc1C(C)(C)C [IA-L2-1.4] : what is it?
### Response 6.00 to 7.00

### Prompt Reported pIC50 for COc1c(-c2cc(F)c(/C=N/NS(C)(=O)=O)c(F)c2)cc(N2CCC(=O)NC2=O)cc1C(C)(C)C [IA-L0-1.3] : what is it?
### Response 6.00 to 7.00

### Prompt Reported pIC50 for COc1c(C(=O)Nc2ccc(N(CC3CC3)S(C)(=O)=O)cc2)cc(N2CCC(=O)NC2=O)cc1C(C)(C)C [IA-L3-1.66] : what is it?
### Response < 6.00
